Hey, just so you know, these numbers are from paper PMC4081100.

Target: GST-ATAF1 NAC domain (Arabidopsis thaliana, UniProt Q39013 7-158)
Sequence: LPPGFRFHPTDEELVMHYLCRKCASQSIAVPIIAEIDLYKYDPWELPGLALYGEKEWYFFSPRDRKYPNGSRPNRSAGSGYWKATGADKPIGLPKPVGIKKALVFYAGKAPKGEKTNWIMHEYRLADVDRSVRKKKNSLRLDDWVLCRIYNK
Assay: universal protein binding microarray (PBM); transcription factors of Arabidopsis thaliana; high values mean tight binding
Settings: protein: recombinant; tags: GST; chain copies: 2; dsDNA, one strand shown
endpoint: binding signal (E-score)

* GGAAGTAA | 0.123
* GTGGCGTA | 0.235
* GTGAAGAA | 0.316
* TAACGTAA | 0.34
* ACGTTAGC | 0.213
* GTACGCTA | 0.238
* ATTACGTA | 0.404
* GTTGACAA | 0.195
* AAGGTAAC | 0.142
* TAGGGAAA | 0.088
* GAGGAAAA | 0.1
* ATTTCCCC | 0.0697
* AAGTTGAC | 0.0834
* GTTGAGTA | 0.139
* GACGCAAC | 0.282
* TACAGTCA | 0.107
* ATTTCGTG | 0.154
* AAGCGTAA | 0.175
* ACGCAACC | 0.428
* ATTACTTA | 0.168
* ACGCAATA | 0.166
* TAGTCAGA | 0.0564
* GTTTCTTA | 0.257
* TAGGTCAA | 0.145
* ATACGCTA | 0.187
* ACACGTAA | 0.439
* ACGCAAAG | 0.256
* CAAAAGTC | 0.222
* ACAAGTTA | 0.162
* GATACGTA | 0.341
* ACGTCACT | 0.354
* ATTACGTC | 0.356
* CTTGCTTA | 0.136
* CAAGCAAG | 0.0612
* ACGGCAGT | 0.212
* AAGGGTAA | 0.0524
* TAAGGAAA | 0.157
* AATTGCGT | 0.319
* ATAGTCAA | 0.263
* ACGGCAAC | 0.288
* CTAAGTTA | 0.173
* ACGTTACC | 0.195
* GTGACGTA | 0.39
* ACGCCACG | 0.0586
* TGCGTACA | 0.272
* AAGTCAAG | 0.0757
* CTTGACCA | 0.145
* AACGTAAT | 0.359
* CTTAGTCA | 0.101
* AAGTTACC | 0.142
* GCGTATAA | 0.229
* AACGTAGA | 0.163
* GACGTCAA | 0.0728
* ACGGAACT | 0.392
* CTACGTAA | 0.316
* AATGTCAA | 0.19
* GAGGAAAC | 0.0627
* ATATTGAC | 0.167
* CACACGTC | 0.248
* ACCTTACC | 0.0631
* ACGTCTCT | 0.452
* CACGAAAG | 0.133
* AAGGAAAT | 0.122
* ACGCAAGC | 0.148
* ACGGCACT | 0.454
* ATTTCTTA | 0.19
* TCAAGTCA | 0.0801
* AATGCGTG | 0.271
* CACGCAAC | 0.437
* GTACGCGA | 0.234
* GACGTGTA | 0.291
* ACACTCAA | 0.17
* ATACGGCA | 0.365
* CTTACGCA | 0.187
* ACGCAAGT | 0.295
* GGAGGTAA | 0.137
* ACGGAACA | 0.304
* ACGCCACC | 0.262
* AAGGTCAG | 0.0646
* GTACGAAA | 0.24
* GCAAGTCA | 0.0771
* GATTTGAC | 0.122
* ACGCTTCC | 0.139
* CACGCAAG | 0.268
* CACGCCAA | 0.16
* TAGAGTAA | 0.0567
* AGTCAACA | 0.152
* GTCAAGTA | 0.136
* AATAGTCA | 0.061
* GGACGCAA | 0.0919
* GGCGTAAC | 0.0594
